read-out: Insulin Like Growth Factor 1 (IGF1), IGF1 (gene 3479); experiment: LTEA_HepaRG_IGF1: Life Technologies and Expression Analysis (LTEA) Assay for Insulin Like Growth Factor 1 (IGF1) using HepaRG (AID 2283506); details: mRNA level, 48 h; actives raise or lower the signal
Active and inactive are the calls of the source. The calls were made as follows: active = hit-call score of the fitted dose curve at least 0.9, where 1 is the maximum; inactive = score below 0.9.
Possible outcomes: true for active, false for inactive

>>> print(df.to_string())
                                    compound  category_label
 0  Cc1cc(F)ccc1-c1cc(N2CC[C@@H](O)[C@H]2CO)ncc1N(C)C(=O)C(C)(C)c1cc(C(F)(F)F)cc(C(F)(F)F)c1            true
 1  CCN(Cc1cccc(S(=O)(=O)O)c1)c1ccc(C(=C2C=CC(=[N+](CC)Cc3cccc(S(=O)(=O)O)c3)C=C2)c2ccccc2S(=O)(=O)[O-])cc1           false
 2                                 O=CCCCC=O           false
 3                          c1ccc2n[nH]nc2c1           false
 4  CN1C(=O)N(c2ccccc2Br)Cc2cnc(Nc3ccc4c(c3)OCC(CO)O4)nc21 (configuration not stated)            true
 5                      O=C1CCC(C2CCCCC2)CC1           false
 6                                 Oc1ccccc1           false
 7  CC(O)CC(C)(C)O (configuration not stated)           false
 8                          Cc1ccc(C(C)C)cc1           false
 9             O=C(O)c1ccccc1C(=O)OCc1ccccc1           false
10  O=C(O)c1ccccc1-n1cc(C(=O)O)c(=O)c2cc(Nc3c(F)cc(F)cc3Cl)c(Cl)cc21           false
11  COc1cccc([C@H](O)C2CCN(CCc3ccc(F)cc3)CC2)c1OC           false
12                          CCCCCc1ccc(N)cc1           false
13  CC1(C)NC(=O)N(c2ccc([N+](=O)[O-])c(C(F)(F)F)c2)C1=O            true
14  CC(C)(C)c1csc(-c2cc3cc(OCc4ccccc4CC(=O)O)ccc3o2)n1            true
15  O=C1c2ccccc2C(=O)N1CCc1noc(-c2ccc(CN3CCCCCC3)s2)n1           false
16                          O=c1ccc2ccccc2o1           false

----------
read-out: Signal transducer and activator of transcription 3 (Homo sapiens) (UniProt P40763); assay: LTEA_HepaRG_STAT3: Life Technologies and Expression Analysis (LTEA) Assay for Signal transducer and activator of transcription (STAT3) using HepaRG (AID 2283529); conditions: mRNA level, 48 h; actives raise or lower the signal
Sequence (P40763 whole entry, looked up): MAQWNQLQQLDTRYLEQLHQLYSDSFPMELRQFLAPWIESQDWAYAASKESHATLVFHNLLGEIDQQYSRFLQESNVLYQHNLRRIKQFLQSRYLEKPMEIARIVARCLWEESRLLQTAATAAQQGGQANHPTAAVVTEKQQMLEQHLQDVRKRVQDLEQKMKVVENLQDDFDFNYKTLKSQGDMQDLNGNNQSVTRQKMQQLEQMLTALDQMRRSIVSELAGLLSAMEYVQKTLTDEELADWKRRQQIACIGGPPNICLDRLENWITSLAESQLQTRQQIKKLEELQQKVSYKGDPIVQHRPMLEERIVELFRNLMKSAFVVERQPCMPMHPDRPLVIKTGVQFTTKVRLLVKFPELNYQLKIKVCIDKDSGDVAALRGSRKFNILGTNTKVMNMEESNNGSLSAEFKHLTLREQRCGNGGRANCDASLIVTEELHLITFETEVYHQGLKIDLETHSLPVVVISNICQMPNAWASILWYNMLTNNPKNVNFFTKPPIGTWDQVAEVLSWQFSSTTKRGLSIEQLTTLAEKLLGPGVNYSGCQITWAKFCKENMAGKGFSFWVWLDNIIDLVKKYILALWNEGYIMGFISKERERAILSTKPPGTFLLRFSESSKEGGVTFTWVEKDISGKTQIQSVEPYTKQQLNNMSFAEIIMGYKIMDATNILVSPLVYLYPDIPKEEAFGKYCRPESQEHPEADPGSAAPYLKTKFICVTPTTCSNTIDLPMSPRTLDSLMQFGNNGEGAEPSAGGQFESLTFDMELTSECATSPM
Active and inactive are the calls of the source. How the source made its calls: active means hit-call score of the fitted dose curve at least 0.9, where 1 is the maximum; inactive means score below 0.9.
Possible outcomes: t (active), f (inactive)

MOLECULE	CATEGORY_LABEL
O=C(Nc1ccc(Cl)cc1)Nc1ccc(Cl)c(Cl)c1	t
Cc1cc2c(cc1C(F)(F)F)N(C(=O)Nc1ccc(Oc3cccnc3C)nc1)CC2	f
c1ccc(C[n+]2cccc3ccccc32)cc1	t
Cc1cccc2ccccc12	f
CO[C@H]1/C=C/O[C@@]2(C)Oc3c(C)c(O)c4c(O)c(c(/C=N/N5CCN(C)CC5)c(O)c4c3C2=O)NC(=O)/C(C)=C\C=C\[C@H](C)[C@H](O)[C@@H](C)[C@@H](O)[C@@H](C)[C@H](OC(C)=O)[C@@H]1C	t
